Assay: Human HepG2 cell viability assay in 384 well format
Format: toxicity, cell-based
Set-up: dose 125 nL, time 70.5 hour; concentration not given beside the values
Conditions: HepG2 cells, read-out: Inhibition
Measured cytotoxicity at 70.5 h values are reported for all entries that follow.
experimental.endpoint: cytotoxicity at 70.5 h (%)

- Cc1cc(NC(=O)c2ccc(Br)cc2F)n(C)n1: 12.5
- COC(=O)N1CC[C@@]2(C1)[C@H](OC)CN(c1ccccc1)S2(=O)=O: -11.4
- COc1ccc(OC)c2c(C)cc(N(C)CCCO)nc12: 4.59
- Cc1occc1C(=O)N1CCO[C@H]2[C@H](OCc3cccnc3)CC[C@@H]21: -8.78
- O=C(CCNS(=O)(=O)c1ccc(F)cc1)NCc1ccoc1: -9.41
- O=C(C1CCC1)N1C[C@H]2CNC[C@H]2C1: 13.3
- Cc1noc(C)c1CN1CCC2(CCN(Cc3cccc(F)c3)CC2)C1: -9.09
- CCc1n[nH]c(=O)c(C(=O)N2CCSC(C)(C)C2)c1CC: -10.1
- CC(C)Cc1nc(CS(=O)(=O)c2ccccc2)no1: -2.63
- Cc1ccc(C)c(S(=O)(=O)CCN2CCCC2Cn2cncn2)c1 (configuration not stated): -14.3
- CC(C)N1[C@H](CN2CCCC2)C[C@@H]2CN(Cc3cnn(C)c3)CC[C@@H]21: -10.1
- CC(=O)NC1CCN(C(=O)Nc2cccc(SC(F)F)c2)CC1: -0.185
- CCN(Cc1nonc1C)C(=O)c1ccc(Br)o1: -4.49
- Cc1cnn(C2CN(Cc3nc(-c4cccnc4)no3)C2)c1: 1.92
- Cc1ccc(C2CN(CCS(C)(=O)=O)CCO2)c(C)c1 (configuration not stated): -12.5
- Cc1nc(C(=O)N2CCN(C(=O)C3CCC3)[C@@H]3CS(=O)(=O)C[C@@H]32)cs1: 2.83
- CN(CC1CCOC1)c1ncc(Br)cn1 (configuration not stated): -3.89

###

Experiment: Human HepG2 cell viability assay in 384 well format
Assay type: toxicity, cell-based
Set-up: dose 125 nL, time 70.5 hour; concentration not given beside the values
Details: HepG2 cells, read-out: Inhibition
experimental.endpoint: cytotoxicity at 70.5 h (%)

- CCO[C@@H]1CO[C@@]2(CCCN(S(=O)(=O)c3ccccc3)C2)C1: -8.47
- Cc1ccc(C(=O)Nc2cc(C(N)=O)ccc2CN(C)C)cc1Cl: -7.51
- O=C(CCC(F)(F)F)N1CCCC(c2ncc[nH]2)C1 (centres undefined): 42.3
- O=C(c1ccnc(C2CCNCC2)c1)N1CCCC1: 7.01

###

Experiment: Human HepG2 cell viability assay in 384 well format
Assay type: toxicity, cell-based
Set-up: dose 125 nL, time 70.5 hour; concentration not given beside the values
Conditions: HepG2 cells, read-out: Inhibition
experimental.endpoint: cytotoxicity at 70.5 h (%)

• CSc1ccccc1C(=O)N1C[C@@H](N(C)C)[C@H](c2ccc(C)cc2)C1 = -1.92
• CCOc1cccc(NS(=O)(=O)c2cc(C)c(C(=O)O)s2)c1 = 8.89
• CC(C)c1nnc2n1CCN(C(=O)c1ccc(-n3cnnc3)cc1)C2 = 27.3
• CC(C)CC(=O)N1CC(=O)N(CCc2ccccc2)CC(O)C1 (centres undefined) = 24
